In what follows, each item is paired with its pIC50 for UniProtKB P34972.
pIC50: −log10 of the molar value.

Some molecules with known pIC50 results, for comparison:
molecule	pIC50
CCCCCc1cc2c(c3c1C(=O)OCO3)[C@@H]1C=C(C)CC[C@H]1C(C)(C)O2	> 6.30
CCCCCc1cc2c(c3c1C(=O)OC(CC)O3)[C@@H]1C=C(C)CC[C@H]1C(C)(C)O2 (stereo partly drawn) [Compound 17b]	> 6.30
CCCCCc1cc2c(c3c1C(=O)OC(C)O3)[C@@H]1C=C(C)CC[C@H]1C(C)(C)O2 (stereo partly drawn) [Compound 16b]	> 6.30
CCCCCc1cc2c(c3c1C(=O)OC(CC(C)=O)O3)[C@@H]1C=C(C)CC[C@H]1C(C)(C)O2 (stereo partly drawn) [Compound 14b]	5.30 to 6.00
CCCCCc1cc2c(c3c1C(=O)OC(CC(C)=O)(c1ccc(Cl)cc1)O3)[C@@H]1C=C(C)CC[C@H]1C(C)(C)O2 (stereo partly drawn) [Compound 23b]	5.30 to 6.00

Moving on to another molecule below.
May I ask what pIC50 has been recorded for CCCCCc1cc2c(c3c1C(=O)OC(CC(C)=O)(c1ccc(F)cc1)O3)[C@@H]1C=C(C)CC[C@H]1C(C)(C)O2 (stereo partly drawn) [Compound 13b] ?
5.30 to 6.00

---

biological target: human CB2 receptor (Homo sapiens, UniProt P34972); construct: host or cells: CHO-K1 (Chinese hamster ovary) cells, stably transfected; membranes prepared in house; assay: CB2 radioligand ([3H]CP55,940) competitive binding assay; settings: fold difference in binding between CB1 and CB2, shown in the column of the receptor with higher affinity; 1.00 in both = about the same affinity
Sequence (P34972 whole entry): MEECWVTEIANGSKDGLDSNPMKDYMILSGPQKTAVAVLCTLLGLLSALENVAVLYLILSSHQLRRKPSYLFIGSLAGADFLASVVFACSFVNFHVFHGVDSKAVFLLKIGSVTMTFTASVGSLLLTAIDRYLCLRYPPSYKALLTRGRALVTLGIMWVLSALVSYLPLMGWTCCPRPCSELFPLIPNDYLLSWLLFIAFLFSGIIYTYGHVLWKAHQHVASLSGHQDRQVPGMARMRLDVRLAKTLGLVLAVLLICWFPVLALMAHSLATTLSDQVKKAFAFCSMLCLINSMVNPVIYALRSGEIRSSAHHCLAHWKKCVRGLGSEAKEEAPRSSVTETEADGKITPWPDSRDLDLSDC
recordedMetric: Selectivity CB2 (fold)
Answers are plain numbers, in fold.

Here is how some molecules turned out for Selectivity CB2.
molecule	endpointUnit	Selectivity CB2
CCCCCc1cc2c(c3c1C(=O)OC(CC(C)=O)(c1ccc(Cl)cc1)O3)[C@@H]1C=C(C)CC[C@H]1C(C)(C)O2 (stereo partly shown) [Compound 23b]	fold	1.00
CCCCCc1cc2c(c3c1C(=O)OC(CC(C)=O)(c1ccccc1)O3)[C@@H]1C=C(C)CC[C@H]1C(C)(C)O2 (stereo partly shown) [Compound 12b]	fold	1.33
CCCCCc1cc2c(c3c1C(=O)OC(C)(C)O3)[C@@H]1C=C(C)CC[C@H]1C(C)(C)O2	fold	1.03
CCCCCc1cc2c(c3c1C(=O)OC(CC)O3)[C@@H]1C=C(C)CC[C@H]1C(C)(C)O2 (stereo partly shown) [Compound 17b]	fold	12.73
CCCCCc1cc2c(c3c1C(=O)OC(CC(C)=O)(c1ccc(OC)cc1)O3)[C@@H]1C=C(C)CC[C@H]1C(C)(C)O2 (stereo partly shown) [Compound 21b]	fold	1.00
CCCCCc1cc2c(c3c1C(=O)OC(CC(C)=O)(c1ccc(F)cc1)O3)[C@@H]1C=C(C)CC[C@H]1C(C)(C)O2 (stereo partly shown) [Compound 13b]	fold	1.00

Attention now shifts to the item below.
Query: Selectivity CB2; subject: CCCCCc1cc2c(c3c1C(=O)OCO3)[C@@H]1C=C(C)CC[C@H]1C(C)(C)O2
1.80

---

target: human CB1 receptor (Homo sapiens); test: biochemical; type: binding; set-up: host or cells: CHO-K1 (Chinese hamster ovary) cells, stably transfected; membranes prepared in house
Sequence (P21554 whole entry): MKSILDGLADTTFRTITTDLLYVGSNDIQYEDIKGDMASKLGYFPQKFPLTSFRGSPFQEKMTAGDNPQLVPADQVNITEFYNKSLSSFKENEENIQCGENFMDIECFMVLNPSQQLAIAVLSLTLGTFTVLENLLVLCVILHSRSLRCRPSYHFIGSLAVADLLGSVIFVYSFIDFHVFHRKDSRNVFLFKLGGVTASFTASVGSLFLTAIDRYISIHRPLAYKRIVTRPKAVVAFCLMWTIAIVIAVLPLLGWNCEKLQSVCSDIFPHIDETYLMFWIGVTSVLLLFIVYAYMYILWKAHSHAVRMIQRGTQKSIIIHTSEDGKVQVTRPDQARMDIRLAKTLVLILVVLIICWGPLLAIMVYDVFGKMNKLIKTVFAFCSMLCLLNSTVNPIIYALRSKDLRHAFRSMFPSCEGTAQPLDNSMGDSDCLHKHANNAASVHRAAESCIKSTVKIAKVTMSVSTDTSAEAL
pIC50: −log10 of the molar value.
Can you tell me pIC50 for the items I'm about to list?

Please review the entries below; each comes with its answer.
molecule	pIC50
CCCCCc1cc2c(c3c1C(=O)OC(CC(C)=O)O3)[C@@H]1C=C(C)CC[C@H]1C(C)(C)O2 (stereo partly shown) [Compound 14b]	5.30 to 6.00
CCCCCc1cc2c(c3c1C(=O)OC(CC)O3)[C@@H]1C=C(C)CC[C@H]1C(C)(C)O2 (stereo partly shown) [Compound 17b]	5.30 to 6.00
CCCCCc1cc2c(c3c1C(=O)OC(C)(C)O3)[C@@H]1C=C(C)CC[C@H]1C(C)(C)O2 [Compound 2b]	> 6.30
CCCCCc1cc2c(c3c1C(=O)OC(c1ccccc1)O3)[C@@H]1C=C(C)CC[C@H]1C(C)(C)O2 (stereo partly shown) [Compound 3b]	5.30 to 6.00

Dear reader, for each entry below, please note its pIC50.
1. CCCCCc1cc2c(c3c1C(=O)OC(C)O3)[C@@H]1C=C(C)CC[C@H]1C(C)(C)O2 (stereo partly shown) [Compound 16b]
2. CCCCCc1cc2c(c3c1C(=O)OC(CC(C)=O)(c1ccccc1)O3)[C@@H]1C=C(C)CC[C@H]1C(C)(C)O2 (stereo partly shown) [Compound 12b]
3. CCCCCc1cc2c(c3c1C(=O)OCO3)[C@@H]1C=C(C)CC[C@H]1C(C)(C)O2 [Compound 1b]

1: > 6.30; 2: < 5.30; 3: 6.00 to 6.30
